For each of the molecules below, state its pIC50.
- targetOrSystem: human CIT (Homo sapiens, UniProt O14578)
- Construct: Recombinant human CIT (1-499); GST (N); purchased SignalChem C52-11G; host or cells: Sf9 insect cells
- Sequence (O14578 1-499): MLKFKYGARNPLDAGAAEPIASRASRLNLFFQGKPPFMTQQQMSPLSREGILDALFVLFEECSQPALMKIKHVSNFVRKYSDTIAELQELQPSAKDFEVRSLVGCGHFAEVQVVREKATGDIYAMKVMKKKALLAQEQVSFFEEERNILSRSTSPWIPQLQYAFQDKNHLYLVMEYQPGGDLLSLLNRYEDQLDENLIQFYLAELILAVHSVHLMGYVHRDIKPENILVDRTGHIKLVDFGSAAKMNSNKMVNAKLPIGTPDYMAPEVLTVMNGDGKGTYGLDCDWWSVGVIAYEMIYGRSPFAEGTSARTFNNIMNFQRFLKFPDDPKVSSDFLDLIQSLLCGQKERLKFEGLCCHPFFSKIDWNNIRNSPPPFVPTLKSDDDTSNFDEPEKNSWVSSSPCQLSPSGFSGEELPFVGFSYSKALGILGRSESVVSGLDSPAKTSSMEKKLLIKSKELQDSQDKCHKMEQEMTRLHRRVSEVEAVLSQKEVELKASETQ
- testMethodNotes: CIT enzyme assay (ADP-Glo)
- Assay type: biochemical
- testConditions: ADP-Glo, ATP 5 μM; read-out: CIT IC50
pIC50: −log10 of the molar value.

Known results for molecules:
[in] Quick one: give measured pIC50 for O=C1NC(Nc2ccccc2)=N/C1=C\c1ccc2ncccc2c1 [Example 53]
[out] < 5.00

[in] Quick one: give measured pIC50 for O=C1NC(Nc2ccc3nccnc3c2)=N/C1=C\c1ccc2ncsc2c1 [Example 82]
[out] < 5.00

[in] Quick one: give measured pIC50 for COc1ccc(N(C)C2=N/C(=C\c3ccc4ncsc4c3)C(=O)N2)cc1 [Example 38]
[out] 5.00 to 6.00

[in] Quick one: give measured pIC50 for O=C1NC(N(CCO)c2ccccc2)=N/C1=C\c1ccc2c(c1)OCO2 [Example 13]
[out] < 5.00

[in] Quick one: give measured pIC50 for Nc1ccc(NC2=N/C(=C\c3ccc4ncsc4c3)C(=O)N2)cc1 [Example 98]
[out] 6.00 to 7.00

[in] Quick one: give measured pIC50 for O=C1NC(N(Cc2ccccc2)c2ccccc2)=N/C1=C\c1ccc2c(c1)OCO2 [Example 22]
[out] < 5.00

Could I get pIC50 for every one of these entries?
1. O=C1NC(Nc2ccc(Cl)cc2)=N/C1=C\c1ccc2ncsc2c1 [Example 40]
2. O=C1NC(Nc2ccc3ncsc3c2)=N/C1=C\c1ccc2ncsc2c1 [Example 48]
3. O=C1NC(Nc2ccc3ncsc3c2)=N/C1=C\c1ccc2c(c1)OCO2 [Example 47]
4. O=C1NC(Nc2ccccc2)=N/C1=C\c1ccc2occc2c1 [Example 52]
5. CCN(C1=N/C(=C\c2ccc3c(c2)OCO3)C(=O)N1)c1ccccc1 [Example 4]
6. CC(C)NC1=N/C(=C\c2ccc3ncsc3c2)C(=O)N1C [Example 45]
7. O=C1/C(=C/c2ccc3c(c2)OCO3)N=C(N(Cc2ccccc2)c2ccccc2)N1Cc1ccccc1 [Example 2]

[out]
["6.00 to 7.00", "6.00 to 7.00", "< 5.00", "< 5.00", "< 5.00", "6.00 to 7.00", "< 5.00"]
